Kindly supply the reported growth values for the records listed here.
System: 786-0 renal
Experiment: NCI-60 one-dose screen, 48 h (100 = growth as untreated, 0 = no growth, -100 = all killed)
Details: 10 µM unless noted
Procedure: Cells are grown in 96 well plates and exposed to the test compound for 48 hours. Compounds are tested at a single concentration, which is 10^-5 M for most compounds. The reported endpoint is percent growth (GI% or GIPRCNT), where numbers from 0 - 100% represent growth inhibition, and numbers from -100% - 0 represent cell death. For example, a value of 40 represents 60% growth inhibition. A value of 0 means no net growth occurred over the course of the experiment. […]
About 83,000 compounds went through this panel and 20% of them were active in at least one assay; those are over-represented in the sample as a whole.
Reply with just the number (in %).

## Task What is its growth for 786-0 renal? Entry: O=NN(Cc1cccnc1)C(=O)NC1CCCCC1
## Result 108

## Task Now consider C=C[C@@H]1CCC/C=C/[C@@H]2C[C@H](O)C[C@H]2[C@H](O)/C=C/C(=O)O1 .
## Result -12.9

## Task Now consider COc1ccc2[nH]c(O)c(N=NC(=O)c3oc4ccccc4c3C)c2c1 .
## Result -66.9

## Task Now consider CCOc1ccc2c(c1)CN(Cc1ccc(Cl)cc1)CO2 .
## Result 6.53

## Task Now consider Cc1sc2ncnc(Sc3nc4ccccc4[nH]3)c2c1C .
## Result -94.7

## Task Now consider COc1cc(OC)cc(N2C(=O)N(Cc3ccc(C(C)(C)C)cc3)c3ccccc3S2(=O)=O)c1 .
## Result 73.7

## Task Now consider NC(CCl)=NCCC[C@H](N)C(=O)O .
## Result 106

## Task Now consider O=C1/C(=C/c2cccc(O)c2)COc2ccc(O)cc21 .
## Result 82.1

## Task Now consider CCOC(=O)C(CC(=O)O)=C(C(=O)OCC)C(=O)OCC .
## Result 115

## Task Now consider O=C(CSc1nc2ccccc2c(=O)n1-c1ccccc1)Nc1ccc(C(=O)/C=C/c2ccc(Cl)cc2)cc1 .
## Result 102

## Task Now consider CCOc1c(Br)cc(C2C(C(=O)OC)=CN(C)C=C2C(=O)OC)cc1OC .
## Result 58.3

## Task Now consider CCOc1cccc(/C=N/NC(=O)C(=O)Nc2cccc(C(F)(F)F)c2)c1O .
## Result 23

## Task Now consider O=C(NN1C(=O)CSC1c1ccc(Cl)cc1)c1[nH]c2ccc(F)cc2c1-c1ccccc1 (stereo not given) .
## Result 65.8

## Task Now consider COc1cc(/C=C2\CN(C)C/C(=C\c3cc(CN4CCCCC4)c(O)c(OC)c3)C2=O)cc(CN2CCCCC2)c1O .
## Result 50.1

## Task Now consider COc1cccc2cc(N(C)c3nc(C)nc4ccsc34)ccc12 .
## Result 20.5

## Task Now consider Cc1cc2c(c(C)c1Cl)C(=O)/C(=C/c1cccc([N+](=O)[O-])c1)O2 .
## Result 101

## Task Now consider O=c1c2cc(F)ccc2sc2c(Nc3ccncc3)nc3ccccc3c12 .
## Result -79.8

## Task Now consider COc1ccc2c(c1)C=C1CSCC3=Cc4cc(OC)ccc4OC13O2 .
## Result 38.6

## Task Now consider NCCNc1nc2ccc(F)cc2c2c(=O)c3cc(F)ccc3sc12 .
## Result 58.6

## Task Now consider COc1ccc(C(=O)Nc2ccc3nc(N4CCCCC4)cc(C)c3c2)cc1OC .
## Result 85.4

## Task Now consider CC(=Nc1ccccc1)C1=C(O)C(Cc2ccc(F)cc2)NC1=O (stereo not given) .
## Result 48.2

## Task Now consider Cc1ccc(Cn2c(N3CCC(C(=O)NCc4cccs4)CC3)nc3ccccc32)cc1 .
## Result 89.1

## Task Now consider O=C1NC(=O)C(=Cc2cn(Cc3cn(Cc4ccc(Cl)cc4Cl)nn3)c3ccccc23)C(=O)N1 .
## Result 106

## Task Now consider NCCOc1ccccc1/C=C1\c2ccccc2-c2ccc([N+](=O)[O-])cc21 .
## Result -41.5

## Task Now consider Cc1nc(Nc2cn[nH]c2C(=O)Nc2ccc(CN3CCN(C)CC3)cc2)c2ccsc2n1 .
## Result 65.1

## Task Now consider CC1=CCC(OC(=O)C(C)(C)CCC(O)(C(=O)OC2(C(C)C)CCC3(C)OC3C2)C(C)C)(C(C)C)CC1 (stereo not given) .
## Result -90.5

## Task Now consider O=c1c(-c2nc3ccccc3[nH]2)cc2ccccc2n1Cc1cn(Cc2ccccc2Cl)nn1 .
## Result -20.2

## Task Now consider COc1cccc(C(=O)Cn2cc(/C=C(\C#N)S(=O)(=O)c3ccccc3)c3ccccc32)c1 .
## Result 99.3

## Task Now consider CC(=O)c1ccc(Cc2ccc(C(C)=O)s2)s1 .
## Result 102

## Task Now consider CC[C@]1(O)C[C@@H]2CN(CCc3c([nH]c4ccccc34)[C@@](C(=O)OC)(c3cc4c(cc3OC)N(C)[C@H]3[C@@](O)(C(=O)OC)[C@H](OC(=O)CCCBr)[C@]5(CC)C=CCN6CC[C@]43[C@@H]65)C2)C1 .
## Result 10.4

## Task Now consider COc1cc(NC(=O)CCSc2nc3ccccc3c(=O)n2CCc2ccccn2)cc(OC)c1OC .
## Result 84.3

## Task Now consider COc1cc2nc(NC3CCC3)nc(NC3CCN(C(C)C)CC3)c2cc1OC .
## Result 68

## Task Now consider Cn1nc(C(F)(F)F)c(-c2ccc(Cl)c(C(F)(F)F)c2)c1-c1ccc(OCc2ccc(Cl)cc2)cc1O .
## Result 28.4

## Task Now consider COc1ccc(OC)c(/C=C/C(=O)c2c(C)nc3ccccc3c2/C=C/c2ccccc2)c1 .
## Result 89.2

## Task Now consider CCOC(=O)c1cc2c(n1Cc1ccccc1)-c1oncc1CCC2 .
## Result 102

## Task Now consider CCOC(=O)c1ccc(N=Cc2sc(=O)[nH]c2O)cc1 .
## Result 98.4

## Task Now consider CCN(CC)CCNC(=O)C(Cl)=C1C(Cl)=C(Cl)C(Cl)=C1Cl .
## Result 90.1

## Task Now consider O=c1oc2ccc(Br)cc2c(=O)n1-c1ccc(F)cc1F .
## Result 4.39

## Task Now consider CCOC(=O)c1sc(-c2ccc(OS(=O)(=O)c3cccs3)c(C=O)c2)nc1C .
## Result 5.71

## Task Now consider COc1ccc(-c2cn3c(C(=O)Nc4ccccc4Cl)c(-c4ccccc4)c4c3n2CCCC4)cc1 .
## Result 90.8

###

System: HOP-92 NSCLC
Assay: NCI-60 one-dose screen, 48 h
Settings: 10 µM unless noted
Compounds without any hit were thinned out: in the full panel of roughly 83,000, 20% have a hit. The source made the active and inactive calls. Rule for the calls: active = growth percent below 10; inactive = the rest.
Log the outcome using a class from Yes = active, No = inactive

## Task Give the logged outcome of this assay for the following compound: CC(C)C[C@H](C(=O)N[C@@H](C)C(N)=O)N1CC=CCN(O)S1(=O)=O
## Result No

## Task Now consider COc1cccc(/C(C#N)=C/c2nc3c(N4CCOCC4)nc(Cl)nc3n2C)c1 .
## Result Yes

## Task Now consider CCOC(=O)c1sc(-c2ccc(OS(=O)(=O)c3ccc(Br)s3)c(C=O)c2)nc1C .
## Result No

## Task Now consider CCN(CCO)CCNc1ccc(C)c2sc3cc(Cl)ccc3c(=O)c12 .
## Result Yes

## Task Now consider CCOC(=O)c1cc2c(n1Cc1cc(OC)cc(OC)c1)-c1oncc1CCC2 .
## Result No

## Task Now consider CCOc1cc(Cl)c(C(C)NC(=O)c2cccc(OC)c2)cc1OCC (stereo unspecified) .
## Result Yes

## Task Now consider COc1ccc(N(C)c2nc(N)nc3sc4c(c23)CCCC4)cc1 .
## Result No

## Task Now consider O=c1oc2ccc(I)cc2c(=O)n1-c1ccc(Cl)cc1F .
## Result Yes

## Task Now consider O=C(Nc1ccc(Cl)cc1F)c1cc(F)ccc1O .
## Result Yes

## Task Now consider O=C1c2cc(I)ccc2Oc2cc([N+](=O)[O-])ccc2N1c1ccc(Cl)cc1F .
## Result No

## Task Now consider c1ccc(CNc2nc(Nc3ccccc3)nc3ccccc23)cc1 .
## Result Yes

###

Kindly supply the reported growth values for the records listed here.
Tested on: DU-145 prostate
Assay: NCI-60 one-dose screen, 48 h (100 = growth as untreated, 0 = no growth, -100 = all killed)
Conditions: 10 µM unless noted
The panel holds about 83,000 compounds, 20% with a hit somewhere; the sample as a whole holds those more often. Activity calls are given as the source filed them. The calls were made as follows: active = growth percent below 10; inactive = the rest.

## Task What value of growth has been recorded for this entry: COc1ccc(-c2nsc3c2NC(=O)CC3c2cccc(OC)c2)cc1 (stereo unspecified)
## Result 13.7% (inactive)

## Task Now consider COc1cc(CNC(=O)c2ccsc2Nc2ccnc(C(F)(F)F)c2)ccc1O .
## Result 107% (inactive)

## Task Now consider COc1ccc(-c2nc(-c3ccccc3)c(-c3ccccc3)[nH]2)cc1OC1CCCCC1 .
## Result 99.7% (inactive)

## Task Now consider CCOc1c(Br)cc(C2C(C(=O)OC)=CN(C)C=C2C(=O)OC)cc1OC .
## Result 91.4% (inactive)

## Task Now consider COc1ccc(-c2cn[nH]c2-c2ccc(OC)c(O)c2)cc1 .
## Result 96.9% (inactive)

## Task Now consider CCCCC(O)(c1ccc(Cl)cc1)C(CN1CCOCC1)c1ccc(Cl)cc1 (stereo unspecified) .
## Result 58.2% (inactive)

## Task Now consider COc1ccc(N(C)c2nc(N)nc3sc4c(c23)CCCC4)cc1 .
## Result 0.729% (active)

## Task Now consider COc1ccc2c(c1)C=C1CSCC3=Cc4cc(OC)ccc4OC13O2 .
## Result 17.7% (inactive)

## Task Now consider CSc1nc2c(c(=O)n1C)N=C1c3ccccc3C(=O)C1C(c1ccccc1)N2 (stereo unspecified) .
## Result 81.9% (inactive)

## Task Now consider COc1cc(OC)cc(N2C(=O)N(Cc3ccc(C(C)(C)C)cc3)c3ccccc3S2(=O)=O)c1 .
## Result 96.2% (inactive)

## Task Now consider CC(=O)c1ccc(Cc2ccc(C(C)=O)s2)s1 .
## Result 113% (inactive)

## Task Now consider c1ccc2c(c1)oc1cc3sccc3nc12 .
## Result 114% (inactive)

## Task Now consider COc1cc(C(C)n2cc(-c3ccccc3)nn2)ccc1OC1CCCCC1 (stereo unspecified) .
## Result 84.3% (inactive)

## Task Now consider CCOC(=O)c1cnc2c(C)cccc2c1Nc1ccc(C(C)=O)cc1 .
## Result 22% (inactive)

## Task Now consider CN1C(=O)N(C)C2C1NN=c1s/c(=C\c3c[nH]c4ccccc34)c(=O)n12 (stereo unspecified) .
## Result 5.09% (active)

## Task Now consider COc1ccc(CCN2C(=O)CCSC2=S)cc1 .
## Result 13.8% (inactive)

## Task Now consider COc1cc2nc(NC3CCC3)nc(NC3CCN(C(C)C)CC3)c2cc1OC .
## Result 57.1% (inactive)

## Task Now consider COc1ccccc1CNC(=O)C1c2ccccc2C(=O)N(CC(C)C)C1c1cccs1 (stereo unspecified) .
## Result 71.2% (inactive)

## Task Now consider CCC1=C[C@@H]2CN(C1)Cc1c([nH]c3ccccc13)[C@@](C(=O)OC)(c1cc3c(cc1OC)N(C)[C@H]1[C@@](O)(C(=O)OC)[C@H](OC(C)=O)[C@]4(CC)[C@@H]5C[C@@H]5CN5CC[C@]31[C@@H]54)C2 .
## Result -17.9% (active)

## Task Now consider CN1CCN(Cc2ccc(C(=O)Nc3cncc(C#Cc4cnc5cccnn45)c3)cc2C(F)(F)F)CC1 .
## Result 36.1% (inactive)

## Task Now consider Nc1nonc1-n1nncc1-c1cccnc1 .
## Result 112% (inactive)
